System: 786-0 renal
Protocol text: NCI tumour cell line growth inhibition, 48 h
*1 amine or outer side, *2 acyl side, *3 side chain or, on linkers, in order; H or OH if unused. Where a SMILES comes first, the peptide text is derived from it. Bridges are numbered along the chain shown (N, C = ends). Roman numbers before positions name the chains, in order. [ ]: non-standard residue; d: D form. Actinocin(9to1) = Cc1c2oc3c(C)ccc(C(=O)[*:1])c3nc-2c(C(=O)[*:2])c(N)c1=O; NMeF = CN[CH](Cc1ccccc1)C(=O)O; Sar = CNCC(=O)O
Entries annotated with measured TGI

Consider the following illustrative entries.
The molecule listed as Nc1c(C(=O)Nc2cccc(Cl)c2Cl)sc2nc3c(cc12)C(=O)CCC3 shows TGI equal to > 100 µM

The molecule listed as O=C1C(Cl)=C(Nc2cccc(C(F)(F)F)c2)C(=O)N1Cc1ccc(Cl)cc1 shows TGI equal to 13.5 µM

The molecule listed as CCOC(=O)C(NC(=O)OC(C)(C)C)C(=O)OCC shows TGI equal to > 100 µM

The molecule listed as O=c1[nH]c(=S)c2cc3c(=S)[nH]c(=O)n(CCO)c3nc2n1CCO shows TGI equal to > 100 µM

The molecule listed as CC(C)(C)OC(=O)NCC(=O)N1CCN(C(=O)CNC(=O)OC(C)(C)C)CC1 shows TGI equal to > 100 µM

---
The molecule listed as Cc1c2oc3c(C)ccc(C(=O)NC4C(=O)NC(C(C)C)C(=O)N5CCCC5C(=O)N(C)CC(=O)N(C)C(Cc5ccccc5)C(=O)OC4C)c3nc-2c(C(=O)NC2C(=O)NC(C(C)C)C(=O)N3CCCC3C(=O)N(C)CC(=O)N(C)C(Cc3ccccc3)C(=O)OC2C)c(N)c1=O (configuration not stated) (I: TVP[Sar][NMeF] / II: TVP[Sar][NMeF]; ester I:1-I:C, II:1-II:C; linker I:N-II:N via Actinocin(9to1); configuration not given here) shows TGI equal to > 1 µM

The molecule listed as O=C(/C=C\c1cccc2ccccc12)c1cccc2ccccc12 shows TGI equal to 17.4 µM

###

System: SN12C renal
Protocol text: NCI tumour cell line growth inhibition, 48 h; in the data active = GI50 below about 0.43 µM; inactive = the rest
Would you mind answering with one of these outcomes? yes for active, no for inactive

Q: Field: outcome | Entry: Cc1cc(I)cc(CN(C)CCCN2CCN(C)CC2)c1O
Ans: no

Q: Field: outcome | Entry: Cc1ccc(Sc2cc3c(oc2=O)-c2ccccc2OC3O)cc1 (configuration not stated)
Ans: no

Q: Field: outcome | Entry: CS(=O)(=O)N(c1cc(-c2ccc3ncnc(Nc4cccc(Cl)c4)c3c2)cnc1Cl)S(C)(=O)=O
Ans: yes

Q: Field: outcome | Entry: CC(C)(C)c1ccc(NS(=O)(=O)c2ccc3nc(NC(=O)c4cnccn4)[nH]c3c2)cc1
Ans: no

Q: Field: outcome | Entry: COc1ccc(Cn2cc3c(c2-c2cc(OC)c(OC)c(OC)c2)CCc2cnoc2-3)cc1
Ans: no

Q: Field: outcome | Entry: O=c1ccc2nc(-c3ccccn3)nn(-c3ccccc3)c-2c1
Ans: no

Q: Field: outcome | Entry: O=C(c1ccccc1)c1c(C(F)(F)F)n([O-])c2ccc(C(F)(F)F)cc2[n+]1=O
Ans: yes

Q: Field: outcome | Entry: N#CC1C=Cc2c(ccc3ccccc23)N1C(=O)c1ccccc1 (configuration not stated)
Ans: no

Q: Field: outcome | Entry: COc1cc(NC(=O)C2=C(N3CCOCC3)/C(=C/c3ccc(Cl)cc3)CC2)cc(OC)c1OC
Ans: no

Q: Field: outcome | Entry: COc1cc(-c2csc(NC(=O)Nc3cc(Cl)cc(Cl)c3)n2)cc(OC)c1OC
Ans: no

---
Q: Field: outcome | Entry: CCN(Cc1c(Cl)cccc1Cl)c1ccc(CO)c(Cl)c1
Ans: no

Recorded values, source PubChem BioAssay (NCI).
